Entries and their inhibition in vivo at 50 mg/kg
Tested on: Rat reversed passive Arthus reaction (skin)
PROTOCOL TEXT: Rat reversed passive Arthus reaction (skin) inhibitory activity
Assay type: in vivo, rat (Jcl: SD)
CONDITION DETAILS: po, orally, read-out: Inhibitory percentage (reversed passive Arthus reaction)
Where a name gives a salt, the structure may show the parent alone.
ATTRIBUTE MEASURED: inhibition in vivo at 50 mg/kg (%)

COMPOUND | VAL
CC(C)(C)c1ccc(C(=O)NCCCSc2ccncc2)cc1 [Example 32, hydrochloride] | 41
O=C(NCCCSc1ccncc1)c1ccco1 [Example 53, 4-[3-(2-furoylamino)propylthio]pyridine] | 21
O=C(C=Cc1cccs1)NCCCSc1ccncc1 | 32
O=C(NCCCSc1ccncc1)c1cccnc1 | 35
CCCCOc1ccc(C(=O)NCCCSc2ccncc2)cc1 [Example 35, hydrochloride] | 30
CC(C)(C)C(=O)NCCCSc1ccncc1.Cl [Example 24, hydrochloride] | 46
O=C(NCCCSc1ccncc1)C(F)(F)F [Example 25, hydrochloride] | 24
O=C1c2ccccc2C(=O)N1CSc1ccncc1 | 27
